Test system: Candida albicans
procedure.details: Antimicrobial activity against Candida albicans ATCC 10231 after 48 hrs by serial two fold dilution method
Assay type: functional
test.settings: ATCC 10231, 48 h
Please respond with reported MIC80 for every item in the list.
Numeric only. Scale: µg/mL

Inquiry: Consider the molecule shown here: CNC(=O)COC(=O)[C@@H](N)CNC(=O)/C=C/C(=O)OC.Cl What is its recorded MIC80?
Reply text: 1

Inquiry: Next entry: COC(=O)/C=C/C(=O)NC[C@H](N)C(=O)O[C@@H](C)C(=O)N(C)C.Cl
Reply text: 256

Inquiry: Proceed to COC(=O)/C=C/C(=O)NC[C@H](N)C(=O)OCC(=O)N(C)C.Cl
Reply text: 2
